target: T1, cyno FcRn/b2M (cyno, UniProt Q8SPV9 24-297; Q8SPW0 21-119, biotinylated); assay: SPR pH 6.0;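 note: surface plasmon resonance kinetics at 25 °C, diluted periplasmic extracts injected over immobilized ligand surfaces, 120 s association then 600–3600 s dissociation, running buffer containing 150 mM NaCl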
T1 construct: bought recombinant biotinylated protein (Immunitrack ITF05 or ACRO FCM-C82W5); also called cFcRn; cFcRn/cb2M
T1 sequence (Q8SPV9 24-297 limits assumed, chain 1 of 2): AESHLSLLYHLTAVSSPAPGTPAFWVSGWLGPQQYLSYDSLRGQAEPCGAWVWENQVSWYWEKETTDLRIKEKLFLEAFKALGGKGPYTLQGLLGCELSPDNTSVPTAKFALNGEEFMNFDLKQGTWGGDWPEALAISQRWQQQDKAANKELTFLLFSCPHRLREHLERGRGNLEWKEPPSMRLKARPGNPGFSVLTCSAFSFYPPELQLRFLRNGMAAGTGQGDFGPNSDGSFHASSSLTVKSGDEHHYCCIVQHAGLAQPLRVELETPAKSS
T1 sequence (Q8SPW0 21-119 limits assumed, chain 2 of 2): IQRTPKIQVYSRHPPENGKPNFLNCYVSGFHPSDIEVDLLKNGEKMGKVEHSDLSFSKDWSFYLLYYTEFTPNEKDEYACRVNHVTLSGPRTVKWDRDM
MEASURED PROPERTY: koff (s⁻¹)

BINDER: T0263018B11 T96Y (VHH, name in Kabat numbering, FLAG3-His6 tagged) VHH: EVQLVESGGGVVQPGGSLRLSCAASGFTFSSYAMYWVRQAPGKGLEWVSAISSGGGSTDYADSVKGRFTISRDNSKNTLYLQMNSLRPEDTALYYCAADYLYTSLTWYSYWGQGTLVTVSS
MEASURED PROPERTY: koff
VAL: 0.00035
--
BINDER: T0263018B11 A93T (VHH, name in Kabat numbering, FLAG3-His6 tagged) VHH: EVQLVESGGGVVQPGGSLRLSCAASGFTFSSYAMYWVRQAPGKGLEWVSAISSGGGSTDYADSVKGRFTISRDNSKNTLYLQMNSLRPEDTALYYCTADTLYTSLTWYSYWGQGTLVTVSS
MEASURED PROPERTY: koff
VAL: 0.0019

I. T0263018B11 S101V (VHH, name in Kabat numbering, FLAG3-His6 tagged) VHH: EVQLVESGGGVVQPGGSLRLSCAASGFTFSSYAMYWVRQAPGKGLEWVSAISSGGGSTDYADSVKGRFTISRDNSKNTLYLQMNSLRPEDTALYYCAADTLYTSLTWYVYWGQGTLVTVSS
II. T0263018B11 T96F (VHH, name in Kabat numbering, FLAG3-His6 tagged) VHH: EVQLVESGGGVVQPGGSLRLSCAASGFTFSSYAMYWVRQAPGKGLEWVSAISSGGGSTDYADSVKGRFTISRDNSKNTLYLQMNSLRPEDTALYYCAADFLYTSLTWYSYWGQGTLVTVSS
Exercise: # returns the entry with the larger koff; inputs I and II Response format: the label of the selected entry.
Key: II
